Data origin: ChEMBL document CHEMBL2021781

# system.tested: Histone deacetylase 8 (Homo sapiens)
# Sequence (Q9BY41 whole entry): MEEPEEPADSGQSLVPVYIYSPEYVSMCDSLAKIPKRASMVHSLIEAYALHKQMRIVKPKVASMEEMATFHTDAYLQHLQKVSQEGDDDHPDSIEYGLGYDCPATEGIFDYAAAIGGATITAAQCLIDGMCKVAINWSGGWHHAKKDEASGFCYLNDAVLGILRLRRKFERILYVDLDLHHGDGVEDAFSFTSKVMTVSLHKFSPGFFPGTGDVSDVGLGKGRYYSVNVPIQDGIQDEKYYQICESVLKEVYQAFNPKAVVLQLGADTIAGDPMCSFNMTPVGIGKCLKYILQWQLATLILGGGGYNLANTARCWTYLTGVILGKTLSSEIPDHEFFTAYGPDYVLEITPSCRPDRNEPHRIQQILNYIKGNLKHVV
# assay.comment: Inhibition of HDAC8 in human HeLa cell nuclear extract using Fluor de Lys as substrate after 15 mins by fluorometric analysis
readout.label: IC50 (µM)
Quick note: give the figure in µM, leave out the unit.

Here's what some known entries look like.
smi=COc1cccc2c1C(=O)c1c(O)c3c(c(O)c1C2=O)C[C@@](O)(C(C)=O)C[C@@H]3O[C@H]1C[C@H](NCc2ccc(-c3cn(CCCCCC(=O)NO)nn3)cc2)[C@H](O)[C@H](C)O1 system_tested="Histone deacetylase 8 (Homo sapiens)" readout_label=IC50 assay_value=4.13
smi=COc1cccc2c1C(=O)c1c(O)c3c(c(O)c1C2=O)C[C@@](O)(C(C)=O)C[C@@H]3O[C@H]1C[C@H](NCc2ccc(-c3cn(CCCCCCCC(=O)NO)nn3)cc2)[C@H](O)[C@H](C)O1 system_tested="Histone deacetylase 8 (Homo sapiens)" readout_label=IC50 assay_value=0.379
smi=COc1cccc2c1C(=O)c1c(O)c3c(c(O)c1C2=O)C[C@@](O)(C(C)=O)C[C@@H]3O[C@H]1C[C@H](NCc2ccc(-c3cn(CCCCCCC(=O)NO)nn3)cc2)[C@H](O)[C@H](C)O1 system_tested="Histone deacetylase 8 (Homo sapiens)" readout_label=IC50 assay_value=0.71

We now examine a further compound.
## Task State, in one line, measured IC50 of COc1cccc2c1C(=O)c1c(O)c3c(c(O)c1C2=O)C[C@@](O)(C(C)=O)C[C@@H]3O[C@H]1C[C@H](NCc2ccc(NC(=O)CCCCCCC(=O)NO)cc2)[C@H](O)[C@H](C)O1
## Result 0.22

* * *

# system.tested: Protein deacetylase HDAC6 (Homo sapiens)
# Sequence (Q9UBN7 whole entry): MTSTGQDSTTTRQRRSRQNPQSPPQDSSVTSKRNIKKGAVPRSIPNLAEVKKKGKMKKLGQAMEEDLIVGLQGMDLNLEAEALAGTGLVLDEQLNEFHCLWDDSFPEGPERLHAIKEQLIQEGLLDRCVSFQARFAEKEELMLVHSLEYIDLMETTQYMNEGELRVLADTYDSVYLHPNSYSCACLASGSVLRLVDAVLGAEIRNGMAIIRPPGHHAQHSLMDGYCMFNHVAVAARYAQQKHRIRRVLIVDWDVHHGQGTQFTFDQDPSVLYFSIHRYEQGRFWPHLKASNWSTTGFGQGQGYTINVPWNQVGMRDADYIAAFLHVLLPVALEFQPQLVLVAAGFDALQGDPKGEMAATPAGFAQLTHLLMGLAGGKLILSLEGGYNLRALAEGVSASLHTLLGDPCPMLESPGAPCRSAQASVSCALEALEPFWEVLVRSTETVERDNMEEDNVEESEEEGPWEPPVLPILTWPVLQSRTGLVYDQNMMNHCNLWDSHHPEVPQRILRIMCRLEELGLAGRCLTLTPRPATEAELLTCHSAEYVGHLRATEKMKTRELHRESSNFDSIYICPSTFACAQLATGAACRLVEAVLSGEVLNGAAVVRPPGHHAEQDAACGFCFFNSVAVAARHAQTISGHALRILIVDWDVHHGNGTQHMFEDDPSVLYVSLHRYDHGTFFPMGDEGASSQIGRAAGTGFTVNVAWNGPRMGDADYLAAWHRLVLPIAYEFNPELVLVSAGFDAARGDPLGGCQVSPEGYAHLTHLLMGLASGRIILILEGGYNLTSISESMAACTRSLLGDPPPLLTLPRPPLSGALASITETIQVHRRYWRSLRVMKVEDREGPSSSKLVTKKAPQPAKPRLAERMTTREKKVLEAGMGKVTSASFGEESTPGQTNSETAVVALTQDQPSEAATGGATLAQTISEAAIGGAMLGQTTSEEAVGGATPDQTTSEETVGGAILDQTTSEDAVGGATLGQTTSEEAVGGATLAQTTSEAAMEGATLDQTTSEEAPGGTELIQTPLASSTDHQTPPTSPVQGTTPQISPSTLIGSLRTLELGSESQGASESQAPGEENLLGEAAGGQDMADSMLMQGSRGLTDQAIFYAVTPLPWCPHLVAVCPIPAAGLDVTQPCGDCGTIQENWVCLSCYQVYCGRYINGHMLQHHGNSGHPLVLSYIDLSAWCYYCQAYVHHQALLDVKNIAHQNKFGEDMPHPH
# assay.comment: Inhibition of HDAC6 in human HeLa cell nuclear extract using Fluor de Lys as substrate after 15 mins by fluorometric analysis
readout.label: IC50 (nM)
Quick note: give the figure in nM, leave out the unit.

Here's what some known entries look like.
smi=COc1cccc2c1C(=O)c1c(O)c3c(c(O)c1C2=O)C[C@@](O)(C(C)=O)C[C@@H]3O[C@H]1C[C@H](NCc2ccc(-c3cn(CCCCCC(=O)NO)nn3)cc2)[C@H](O)[C@H](C)O1 measurement_unit=nM assay_value=30
smi=COc1cccc2c1C(=O)c1c(O)c3c(c(O)c1C2=O)C[C@@](O)(C(C)=O)C[C@@H]3O[C@H]1C[C@H](NCc2ccc(-c3cn(CCCCC(=O)NO)nn3)cc2)[C@H](O)[C@H](C)O1 measurement_unit=nM assay_value=555
smi=COc1cccc2c1C(=O)c1c(O)c3c(c(O)c1C2=O)C[C@@](O)(C(C)=O)C[C@@H]3O[C@H]1C[C@H](NCc2ccc(-c3cn(CCCCCCC(=O)NO)nn3)cc2)[C@H](O)[C@H](C)O1 measurement_unit=nM assay_value=20
smi=COc1cccc2c1C(=O)c1c(O)c3c(c(O)c1C2=O)C[C@@](O)(C(C)=O)C[C@@H]3O[C@H]1C[C@H](NCc2ccc(NC(=O)CCCCCCC(=O)NO)cc2)[C@H](O)[C@H](C)O1 measurement_unit=nM assay_value=20

## Task State, in one line, measured IC50 of COc1cccc2c1C(=O)c1c(O)c3c(c(O)c1C2=O)C[C@@](O)(C(C)=O)C[C@@H]3O[C@H]1C[C@H](NCc2ccc(-c3cn(CCCCCCCC(=O)NO)nn3)cc2)[C@H](O)[C@H](C)O1
## Result 19
